# tested-system: STK11 CAB39 STRADA (human) (UniProt Q9Y376+Q7RTN6+Q15831)
# Sequence (Q15831 whole entry, looked up): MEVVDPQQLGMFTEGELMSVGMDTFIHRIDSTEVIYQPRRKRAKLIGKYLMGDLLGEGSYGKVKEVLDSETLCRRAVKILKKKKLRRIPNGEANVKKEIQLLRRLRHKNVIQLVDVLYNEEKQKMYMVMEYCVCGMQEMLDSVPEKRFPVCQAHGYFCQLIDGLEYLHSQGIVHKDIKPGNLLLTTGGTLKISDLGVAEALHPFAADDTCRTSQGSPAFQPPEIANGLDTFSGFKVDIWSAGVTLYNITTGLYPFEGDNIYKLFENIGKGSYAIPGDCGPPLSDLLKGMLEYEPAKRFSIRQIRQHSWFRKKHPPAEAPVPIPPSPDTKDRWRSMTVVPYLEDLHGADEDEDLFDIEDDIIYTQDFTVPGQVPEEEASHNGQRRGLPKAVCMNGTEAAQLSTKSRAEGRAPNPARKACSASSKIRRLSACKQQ
# Sequence (Q7RTN6 whole entry, looked up): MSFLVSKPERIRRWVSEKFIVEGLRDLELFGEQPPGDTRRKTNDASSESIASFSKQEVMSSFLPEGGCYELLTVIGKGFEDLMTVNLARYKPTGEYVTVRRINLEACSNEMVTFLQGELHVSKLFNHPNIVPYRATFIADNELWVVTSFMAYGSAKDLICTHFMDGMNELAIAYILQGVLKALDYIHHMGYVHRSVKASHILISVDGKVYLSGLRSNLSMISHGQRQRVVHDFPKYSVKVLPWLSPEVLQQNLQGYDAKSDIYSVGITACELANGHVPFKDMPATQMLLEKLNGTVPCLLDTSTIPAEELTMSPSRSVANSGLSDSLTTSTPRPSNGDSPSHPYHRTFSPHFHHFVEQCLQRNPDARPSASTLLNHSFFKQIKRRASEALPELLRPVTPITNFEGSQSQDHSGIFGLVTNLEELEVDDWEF
# Sequence (Q9Y376 whole entry, looked up): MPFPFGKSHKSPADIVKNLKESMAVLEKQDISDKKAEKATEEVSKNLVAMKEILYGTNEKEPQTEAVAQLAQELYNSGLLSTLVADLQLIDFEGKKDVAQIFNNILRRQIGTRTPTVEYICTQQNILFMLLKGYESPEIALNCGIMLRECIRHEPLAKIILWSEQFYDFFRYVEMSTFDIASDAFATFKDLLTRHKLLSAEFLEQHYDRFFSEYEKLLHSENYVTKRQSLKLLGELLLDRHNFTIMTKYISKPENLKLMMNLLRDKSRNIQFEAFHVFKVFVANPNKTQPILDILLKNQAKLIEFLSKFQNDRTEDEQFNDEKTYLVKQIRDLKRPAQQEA
# assay-summary: radiometric filter-binding kinase assay
# setup-conditions: compound 10.0 µM
Listed molecules paired with reported residual activity
Return type: number; implicit unit %.

• O=C(Nc1cccnc1)c1cc(-c2ccnc(F)c2)ccc1OCc1ccccc1 = 105
• NCC(=O)Nc1ccc(-n2nc(C(F)(F)F)cc2-c2ccc3c(ccc4ccccc43)c2)cc1 = 99
• C=CC(=O)N1CCC[C@@H](n2nc(-c3ccc(Oc4ccccc4)cc3)c3c(N)ncnc32)C1 = 100
• O=C(N[C@@H](COc1ccc2[nH]c(=O)[nH]c2c1)c1ccccc1)c1cccn(Cc2ccc(F)c(F)c2)c1=O = 93
• O=c1c(O)c(-c2ccc(O)c(O)c2)oc2cc(O)c(O)c(O)c12 = 55

Ask: Need residual activity of Nc1cccc2c1CN(C1CCC(=O)NC1=O)C2=O (centres undefined) , thanks.
Result: 112

Ask: Data request, read-out residual activity, for Cc1ccc2c(c1)C(=O)[C@@]1(O)CCN(c3ccccc3)C1=N2
Result: 81

Ask: Please give the measured residual activity for this molecule: CC1=C(CO)C(=O)O[C@@H]([C@@H](C)[C@H]2CC[C@H]3[C@@H]4C[C@H]5O[C@]56[C@@H](O)C=CC(=O)[C@]6(C)C4CC[C@]23C)C1 (some centres undefined)
Result: 114

Ask: // residual activity lookup, key: COc1cc(C(=O)N2CCOCC2)c(F)cc1Nc1ncc(C(F)(F)F)c(NC2CC2)n1
Result: 92

Ask: Any idea what its residual activity is? The molecule is O=C(O)c1cc(N=Nc2ccc(S(=O)(=O)Nc3ccccn3)cc2)ccc1O
Result: 117

Ask: Name the reported residual activity value associated with the molecule CCNc1nc(Nc2cc(F)c(C(=O)N3CCOCC3)cc2OC)ncc1C(F)(F)F
Result: 86
